assay_details: Compound was tested for Inhibition of [3H]-DPDPE (0.2 nM) binding to Opioid receptor from bovine striatal Membranes
The reader will find reported IC50 values listed item by item below.
Entry rule: numbers only, all in µM.

Example results:
{"compound": "C=C(Cl)C(=O)N[C@@H]1CCC2C3Cc4ccc(O)c5c4C2(CCN3CC2CC2)[C@H]1O5 (some centres undefined)", "uom": "µM", "IC50": 0.0015}
{"compound": "C=C(Cl)C(=O)N[C@@H]1CCC2C3Cc4ccc(O)c5c4C2(CCN3C)[C@H]1O5 (some centres undefined)", "uom": "µM", "IC50": 0.026}
{"compound": "C=C(Cl)C(=O)N[C@@]12CCC(=O)[C@@H]3Oc4c(O)ccc5c4C31CCN(C)C2C5 (some centres undefined)", "uom": "µM", "IC50": 0.184}

Would you kindly share the measured IC50 for C=C(Cl)C(=O)N[C@@]12CCC(=O)[C@@H]3Oc4c(O)ccc5c4C31CCN(CC1CC1)C2C5 (some centres undefined) ?
0.501
